molecular target: plasma kallikrein (Homo sapiens); construct: from tissue; assay: Neat human plasma assay, FXIIa contact pathway-activated, PFR-AMC substrate; type: biochemical; details: citrated human plasma 78% final, 10 nM human FXIIa, 100 μM PFR-AMC; read-out: Human Plasma Assay: IC90
Sequence (P03952 391-638 limits assumed): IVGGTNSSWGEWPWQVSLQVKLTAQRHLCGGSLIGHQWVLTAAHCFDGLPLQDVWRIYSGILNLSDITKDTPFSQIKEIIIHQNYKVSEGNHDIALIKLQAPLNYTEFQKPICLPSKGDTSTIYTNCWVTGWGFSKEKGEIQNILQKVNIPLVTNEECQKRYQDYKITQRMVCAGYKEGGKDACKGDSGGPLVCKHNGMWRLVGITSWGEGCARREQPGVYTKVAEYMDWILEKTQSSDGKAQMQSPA
Sequence (P03952 20-390 partner limits assumed): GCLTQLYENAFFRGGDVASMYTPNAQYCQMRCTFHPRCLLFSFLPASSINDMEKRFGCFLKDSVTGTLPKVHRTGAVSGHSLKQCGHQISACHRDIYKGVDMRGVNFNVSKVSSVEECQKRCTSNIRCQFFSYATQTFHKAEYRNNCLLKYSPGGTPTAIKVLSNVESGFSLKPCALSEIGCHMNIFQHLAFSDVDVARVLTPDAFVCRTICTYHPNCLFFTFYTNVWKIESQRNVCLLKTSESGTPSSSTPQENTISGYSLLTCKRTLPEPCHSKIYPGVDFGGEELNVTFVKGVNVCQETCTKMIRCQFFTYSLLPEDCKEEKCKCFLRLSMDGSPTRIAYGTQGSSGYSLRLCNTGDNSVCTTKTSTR
measuredProperty: IC90

Cc1ccnc([C@H]2C[C@@H]2C(=O)Nc2cc(N(CC(=O)OCc3ccccc3)Cc3cn4cc(C5CC5)cc(N5CC(=O)N(C)C5=O)c4n3)ncn2)n1 [Example 371]: 1500 to 10000 nM

Q: Can you look up the measured IC90 of Cc1ccnc([C@H]2C[C@@H]2C(=O)Nc2cc(N[C@H](C)c3cn4cc(C5CC5)cc(N5CC(=O)N(C)C5=O)c4n3)ncn2)n1 (single isomer, unassigned) [Example 451] for me?
Result: 400 to 1500 nM

Q: Can you look up the measured IC90 of Cc1nc([C@H]2C[C@@H]2C(=O)Nc2cc(NCc3cn4cc(C5CC5)cc(N5CC(=O)N(C)C5=O)c4n3)ncn2)cs1 (racemic) [Example 493] for me?
Result: 400 to 1500 nM
